Biological target: recombinant cynomolgus Aggrecan G1-IGD-G2 (cynomolgus)
Experiment: ELISA on recombinant G1-IGD-G2
QUANTITY: EC50 (nM)

Worked set:
C01010118 (ALB26-114F08-114F08) (VHH, not shown: small tags and cut ends) VHH 1: EVQLVESGGGLVQAGGSLRLSCAASGSTFIINVVRWYRRTPGKQRELVATISSGGNANYVDSVRGRFSISRDGAKNAVDLQMNGLKPEDTAVYYCNVPTTHYGGVYYGPYWGQGTQVTVSS VHH 2: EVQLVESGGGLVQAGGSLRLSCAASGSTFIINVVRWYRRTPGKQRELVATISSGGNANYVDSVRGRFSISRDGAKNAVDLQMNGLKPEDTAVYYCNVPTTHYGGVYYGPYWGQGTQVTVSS    0.076
C01010054 (114F08-ALB26) (VHH, not shown: small tags and cut ends) VHH: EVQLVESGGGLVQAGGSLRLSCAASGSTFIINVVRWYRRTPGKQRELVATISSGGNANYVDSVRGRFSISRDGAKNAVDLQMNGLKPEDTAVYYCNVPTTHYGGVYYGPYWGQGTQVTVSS    4.4
C01010046 (601E08-ALB26) (VHH, not shown: small tags and cut ends) VHH: DVQLVESGGGLVQPGGSLRLSCTASGRTFSSYAVGWFRQAPGKEREFVAAISRSGRSTYYADSVKGRFTISRDNSKNTVYLQMNSLRPEDTAVYYCAAGLSYYSPHAYYDYWGQGTLVTVSS    6.8
C01010106 (ALB26-604F02-604F02) (VHH, not shown: large carriers; small tags and cut ends) VHH 1: DVQLVESGGGLVQPGGSLRLSCAASGRTFSSYTMGWFRQAPGKEREFVAAISWSGGRTYYADSVKGRFTISRDNSKNTVYLQMNSLRPEDTAVYYCAAYRRRRASSNRGLWDYWGQGTLVTVSS VHH 2: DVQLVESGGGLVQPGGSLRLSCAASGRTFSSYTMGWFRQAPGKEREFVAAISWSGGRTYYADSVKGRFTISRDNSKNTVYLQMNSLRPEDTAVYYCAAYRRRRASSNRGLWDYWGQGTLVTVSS    0.068

I. C01010060 (606A07-ALB26) (VHH, not shown: small tags and cut ends) VHH: DVQLVESGGGLVQPGGSLRLSCVASGRTFSIYGMGWFRQAPGKEREFVAAINGGSRTYYADSVKGRFTISRDNSKNTVYLQMNSLRPEDTAVYYCAADRSGYGTSLDWWYDYWGQGTLVTVSS
II. C01010094 (604F02-ALB26) (VHH, not shown: small tags and cut ends) VHH: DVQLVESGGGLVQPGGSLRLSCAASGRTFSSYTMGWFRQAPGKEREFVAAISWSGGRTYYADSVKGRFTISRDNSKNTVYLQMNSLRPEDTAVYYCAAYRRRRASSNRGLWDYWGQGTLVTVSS
III. C01010097 (608A05-ALB26) (VHH, not shown: small tags and cut ends) VHH: DVQLVESGGGLVQPGGSLRLSCAASGRTFSTYTMGWFRQAPGKEREFVAAISWSGGTTYYADSVKGRFTISRDNSKNTVYLQMNSLRPEDTAVYYCAARPRYYYYSLYSYDYWGQGTLVTVSS
input: Order the records, beginning with the lowest EC50 and ending with the highest. Respond with an ordered listing of the labels, as requested.
output: III, II, I
